Examples of compounds with documented melting point follow.

                              smiles_string   result_value
0  CCCCCc1cc(CCN2CCN(c3cccc(OC(F)(F)F)c3)CC2)ccc1C.Cl  197 to 200 °C
1  CCCCCc1cc(CCN2CCN(c3ccc(F)cc3)CC2)ccc1C.Cl.Cl       > 201 °C
2  CCCCCc1cc(CCN2CCN(c3cccc(C(F)F)c3)CC2)ccc1OC.Cl  125 to 128 °C
3   CCCCCc1cc(CCN2CCN(c3ccccc3)CC2)ccc1C.Cl  200 to 202 °C
4  CCCCCCCc1cc(CCN2CCN(c3cccc(C(F)(F)F)c3)CC2)ccc1C.Cl  190 to 192 °C
5  CCCCCc1cc(CCN2CCN(c3cccc(Br)n3)CC2)ccc1C.Cl  185 to 187 °C
6  CCCc1cc(CCN2CCN(c3cccc(C(F)(F)F)c3)CC2)ccc1C.Cl  198 to 200 °C
7  CCCCCc1cc(CCN2CCN(c3ccc(Br)cn3)CC2)ccc1C.Cl.Cl  190 to 192 °C

## Input For the compound shown here, `CCCCCc1cc(CCN2CCN(c3ccc(C(F)(F)F)cn3)CC2)ccc1C.Cl.Cl` , give the reported melting point.
## Output > 212 °C

## Input Same lookup for `CCCCCc1cc(CCN2CCN(c3ccc(OCC)cc3)CC2)ccc1C.Cl.Cl` , please.
## Output 228 to 230 °C

## Input // query: `CCCCCc1cc(CCN2CCN(c3cccc(F)c3)CC2)ccc1C.Cl`
## Output 215 to 217 °C

## Input Same for `CCCCCCCc1cc(CCN2CCN(c3cccc(C(F)(F)F)c3)CC2)ccc1OC.Cl`
## Output 214 °C

## Input Same read-out for `CCCCCc1cc(CCN2CCN(c3cccc(C(F)(F)F)n3)CC2)ccc1C.Cl` ?
## Output 161 to 163 °C

###

MEASURED_PARAMETER: melting point

Use these answered entries as a reference point.
In [3]: df
Out[3]:
                                   molecule   result_value
0  CCCCCc1cc(CCN2CCN(c3ccc(Cl)cc3)CC2)ccc1C.Cl         203 °C
1  CCCCCc1cc(CCN2CCN(c3ccccn3)CC2)ccc1C.Cl.Cl  183 to 185 °C
2  CCCCCc1cc(CCN2CCN(c3ccccc3C)CC2)ccc1C.Cl  220 to 222 °C
3  CCCCCc1cc(CCN2CCN(c3cccc(OC)c3)CC2)ccc1C.Cl  199 to 201 °C
4  CCCCCc1cc(CCN2CCN(c3ccc(C(C)(C)C)cc3)CC2)ccc1C.Cl  193 to 195 °C

## Input # lookup: melting point of `CCCCCc1cc(CCN2CCN(c3cccc(F)c3)CC2)ccc1OC.Cl`
## Output 174 to 177 °C

## Input Also check CCCCCc1cc(CCN2CCN(c3cccc(C(F)F)c3)CC2)ccc1C.Cl [compound 8]
## Output 182 to 185 °C

## Input Cool, now `CCCCCc1cc(CCN2CCN(c3ccc(Cl)cn3)CC2)ccc1C.Cl`
## Output 199 to 201 °C
